# Target or test system: Protein kinase C alpha type (Homo sapiens)
# Assay text: Displacement of [3H]PDBu from human recombinant PKCalpha after 20 mins by liquid scintillation counting
pKi: −log10 of the molar value.
Result type: pKi

Some entries whose results are on file:
{"Structure string": "CCCCCCCCCCCCOc1cccc2c1C(=O)O[C@]2(CO)COC(=O)C(C(C)(C)C)C(C)(C)C", "pKi": 7.37}
{"Structure string": "CCCCCCCCCCCCO[C@H]1[C@@H](OCc2ccc(C(C)C)cc2)[C@H](OCc2ccc(C(C)C)cc2)[C@@H](OCC#Cc2cccc3c2C(=O)O[C@]3(CO)COC(=O)C(C(C)(C)C)C(C)(C)C)[C@H](OCc2ccc(C(C)C)cc2)[C@H]1OCc1ccc(C(C)C)cc1", "pKi": "< 4.70"}

(Q) Report pKi under test system Protein kinase C alpha type (Homo sapiens) for `CCCCCCCCCCCCO[C@@H]1[C@H](OCC=C(C)C)[C@@H](OC/C=C/C(C)C)[C@H](OCC#Cc2cccc3c2C(=O)O[C@]3(CO)COC(=O)C(C(C)(C)C)C(C)(C)C)[C@@H](OCC=C(C)C)[C@@H]1OCC=C(C)C` .
(A) < 4.70

(Q) Report pKi under test system Protein kinase C alpha type (Homo sapiens) for `CCCCCCCCCCCCO[C@H]1[C@@H](OC(C)=O)[C@H](OC(C)=O)[C@@H](OCC#Cc2cccc3c2C(=O)O[C@]3(CO)COC(=O)C(C(C)(C)C)C(C)(C)C)[C@H](OC(C)=O)[C@H]1OC(C)=O` .
(A) 5.63

(Q) Report pKi under test system Protein kinase C alpha type (Homo sapiens) for `CCCCCCCCCCCCO[C@@H]1[C@H](OC)[C@@H](OC)[C@H](OCC#Cc2cccc3c2C(=O)O[C@]3(CO)COC(=O)C(C(C)(C)C)C(C)(C)C)[C@@H](OC)[C@@H]1OC` .
(A) 6.22

* * *

# Target or test system: Protein kinase C alpha type (Homo sapiens, UniProt P17252)
# Assay text: Displacement of [3H]PDBu from human recombinant PKCalpha after 20 mins by liquid scintillation counting
Result type: Ki

Some entries whose results are on file:
{"Structure string": "CCCCCCCCCCCCOc1cccc2c1C(=O)O[C@]2(CO)COC(=O)CCCCCCCCCCC", "Ki": "> 3 µM"}
{"Structure string": "CCCCCCCCCCCCO[C@H]1[C@@H](OCc2ccccc2)[C@H](OCc2ccccc2)[C@@H](OCC#Cc2cccc3c2C(=O)O[C@]3(CO)COC(=O)C(C(C)(C)C)C(C)(C)C)[C@H](OCc2ccccc2)[C@H]1OCc1ccccc1", "Ki": "> 20 µM"}

Now look at this entry.
(Q) Please give measured Ki of the following entry: `CCCCCCCCCCCCO[C@H]1[C@@H](OCc2ccc(F)cc2)[C@H](OCc2ccc(F)cc2)[C@@H](OCC#Cc2cccc3c2C(=O)O[C@]3(CO)COC(=O)C(C(C)(C)C)C(C)(C)C)[C@H](OCc2ccc(F)cc2)[C@H]1OCc1ccc(F)cc1`
(A) > 20 µM

Ref: ChEMBL document CHEMBL1777762
